Consider the following compounds; for each one, report its logP.
Please reply with the value in numeric form only.

Input: Return the recorded logP value; entry: COc1cc(S(=O)(=O)CCN(C)Cc2ccccc2)cc(OC)c1OC
Output: 2.18

Input: Return the recorded logP value; entry: CC(C)CCO[N+](=O)[O-]
Output: 2.84

Input: Return the recorded logP value; entry: CC(=O)Oc1cccc(Cl)c1
Output: 2.32

Input: Return the recorded logP value; entry: CC(=O)c1cccc(F)c1
Output: 1.77

Input: Return the recorded logP value; entry: Cc1ccccc1S(I)=C(N(C)C)N(C)C (stereo not drawn)
Output: -0.1

Input: Return the recorded logP value; entry: CSc1ccc(C(=O)O)cc1
Output: 2.74

Input: Return the recorded logP value; entry: Clc1cc2oc3c(Cl)c(Cl)ccc3c2c(Cl)c1Cl
Output: 6.26

Input: Return the recorded logP value; entry: C=CCc1ccccc1
Output: 3.23

Input: Return the recorded logP value; entry: CN(C)C(N(C)C)=S(I)c1c(Cl)cc(Cl)cc1Cl (stereo not drawn)
Output: 0.05

Input: Return the recorded logP value; entry: O=C1c2ccccc2C(=O)N1c1ccccc1
Output: 2.4

Input: Return the recorded logP value; entry: CC(=O)OC[C@H]1O[C@H](OC(C)=O)[C@H](OC(C)=O)[C@@H](OC(C)=O)[C@@H]1OC(C)=O
Output: 0.63

Input: Return the recorded logP value; entry: Cc1ccc(NC=O)cc1
Output: 1.61

Input: Return the recorded logP value; entry: c1ccc(COc2ccccc2)cc1
Output: 3.79

Input: Return the recorded logP value; entry: Oc1ccc(Cc2ccc(O)cc2)cc1
Output: 2.91

Input: Return the recorded logP value; entry: O=C(CBr)NC(CO)C(O)c1ccc([N+](=O)[O-])cc1 (stereo not drawn)
Output: 0.66

Input: Return the recorded logP value; entry: c1ccc2c(c1)Nc1ccccc1S2
Output: 4.15

Input: Return the recorded logP value; entry: CCCCl
Output: 2.04

Input: Return the recorded logP value; entry: Cc1ncc[nH]1
Output: 0.24

Input: Return the recorded logP value; entry: Nc1cc2c3ccccc3ccc2c2ccccc12
Output: 4.99

Input: Return the recorded logP value; entry: Cn1cc(C(=O)O)c2ccccc21
Output: 2

Input: Return the recorded logP value; entry: COC(=O)CCCCC(C)=O
Output: 0.55

Input: Return the recorded logP value; entry: Oc1cc(Cl)c(Cl)c(Cl)c1
Output: 4.01

Input: Return the recorded logP value; entry: CCOP(=S)(OCC)SCSCC
Output: 3.56

Input: Return the recorded logP value; entry: CN[C@H]1CCc2cc(OC)c(OC)c(OC)c2-c2ccc(OC)c(=O)cc21
Output: 1.37

Input: Return the recorded logP value; entry: Clc1ccc(-c2cc(Cl)c(Cl)cc2Cl)cc1Cl
Output: 7.12

Input: Return the recorded logP value; entry: CCCCNc1nc(NC(C)C)nc(SC(F)F)n1
Output: 4.75

Input: Return the recorded logP value; entry: NN1CCCCC1
Output: -0.28

Input: Return the recorded logP value; entry: Cc1cccc(OC(=O)N(C)C)c1
Output: 2.05

Input: Return the recorded logP value; entry: COc1ccc(-c2nc3cnccc3n2C)c(OC)c1
Output: 2.66

Input: Return the recorded logP value; entry: CS(C)(=O)=O
Output: -1.41

Input: Return the recorded logP value; entry: Nc1ccn(C2CC(O)C(CO)O2)c(=O)n1 (stereo not drawn)
Output: -1.77

Input: Return the recorded logP value; entry: c1ccc(-n2cnnn2)cc1
Output: 1.09

Input: Return the recorded logP value; entry: O=C1c2ccccc2C(=O)N1CCCCBr
Output: 2.96

Input: Return the recorded logP value; entry: Clc1ccc(-c2cc3ccccn3c2)cc1
Output: 5.2

Input: Return the recorded logP value; entry: COc1ccccc1OC(C)=O
Output: 1.38

Input: Return the recorded logP value; entry: NC(=O)NCc1ccccc1
Output: 0.73

Input: Return the recorded logP value; entry: CC(=O)c1cccc(OCC(=O)O)c1
Output: 0.98

Input: Return the recorded logP value; entry: CCOP(=S)(OCC)SC(CCl)N1C(=O)c2ccccc2C1=O (stereo not drawn)
Output: 4.69

Input: Return the recorded logP value; entry: CCCOc1ccc([N+](=O)[O-])c(S(C)(=O)=O)c1
Output: 1.1

Input: Return the recorded logP value; entry: CCOc1cccc(C(=O)NP(=O)(N2CC2)N2CC2)c1
Output: 1.24

Input: Return the recorded logP value; entry: CC(=O)Nc1ccccc1C
Output: 0.85

Input: Return the recorded logP value; entry: CC1=NS(=O)(=O)c2ccccc2N1
Output: 0.29

Input: Return the recorded logP value; entry: Clc1ccc(Cl)c(-c2cc(Cl)ccc2Cl)c1
Output: 6.09

Input: Return the recorded logP value; entry: Cc1noc(NS(=O)(=O)c2ccc(N)cc2)c1C
Output: 1.01

Input: Return the recorded logP value; entry: CCC(CNC)c1ccccc1 (stereo not drawn)
Output: 2.82

Input: Return the recorded logP value; entry: c1ccc2c(c1)COC2
Output: 1.76

Input: Return the recorded logP value; entry: CC(C)c1ccccc1OC(=O)c1ccc(N)cc1O
Output: 4.28

Input: Return the recorded logP value; entry: N#Cc1cccc2[nH]ccc12
Output: 2.46

---

Each record is given yes (1) if its reported logP is strictly below 2. Records at or above 2 are given no (0).

Input: I wonder whether CCCCCn1cnc2c(NC(C)=O)ncnc21 has logP below 2. Can you tell?
Output: yes (1)

Input: I wonder whether COC(=O)c1ccccc1Cl has logP below 2. Can you tell?
Output: no (0)

Input: I wonder whether CC(=O)Nc1ccc(F)cc1 has logP below 2. Can you tell?
Output: yes (1)

Input: I wonder whether COc1c(O)c(C)c(C)c(O)c1OC has logP below 2. Can you tell?
Output: yes (1)

Input: I wonder whether O=c1[nH]cnc2ccccc12 has logP below 2. Can you tell?
Output: yes (1)

Input: I wonder whether CNC(=S)NC has logP below 2. Can you tell?
Output: yes (1)

Input: I wonder whether CNC(=O)ON=C(SC)C(=O)N(C)C has logP below 2. Can you tell?
Output: yes (1)

Input: I wonder whether CN(C(N)=O)c1ccccc1 has logP below 2. Can you tell?
Output: yes (1)

Input: I wonder whether [O-][n+]1cccc2ccccc21 has logP below 2. Can you tell?
Output: yes (1)

Input: I wonder whether CC(C)(C)NC(=O)[C@H]1CC[C@H]2[C@@H]3CC[C@H]4NC(=O)C=C[C@]4(C)[C@H]3CC[C@]12C has logP below 2. Can you tell?
Output: no (0)

Input: I wonder whether Nc1nc(C=Cc2ccc([N+](=O)[O-])o2)no1 has logP below 2. Can you tell?
Output: yes (1)

Input: I wonder whether COP(=O)(OC)O/C(C)=C/C(=O)N(C)C has logP below 2. Can you tell?
Output: yes (1)

Input: I wonder whether CO[C@H]1[C@@H](O)C[C@H](O[C@H]2[C@@H](O)C[C@H](O[C@H]3[C@@H](O)C[C@H](O[C@H]4CC[C@@]5(C)[C@H](CC[C@@H]6[C@@H]5C[C@@H](O)[C@]5(C)[C@@H](C7=CC(=O)OC7)CC[C@]65O)C4)O[C@@H]3C)O[C@@H]2C)O[C@@H]1C has logP below 2. Can you tell?
Output: yes (1)

Input: I wonder whether COc1ccc(C=CNC=O)cc1 has logP below 2. Can you tell?
Output: yes (1)

Input: I wonder whether NC(CCCc1ccccc1)C(=O)O (centres undefined) has logP below 2. Can you tell?
Output: yes (1)

Input: I wonder whether C1OC1C1CO1 (centres undefined) has logP below 2. Can you tell?
Output: yes (1)

Input: I wonder whether O=C(O)CCCN1C(=O)C=CC1=O has logP below 2. Can you tell?
Output: yes (1)

Input: I wonder whether COC(=O)Cc1cccs1 has logP below 2. Can you tell?
Output: yes (1)

Input: I wonder whether CC(C)=NOCCOC(=O)[C@@H](C)Oc1ccc(Oc2cnc3cc(Cl)ccc3n2)cc1 has logP below 2. Can you tell?
Output: no (0)

Input: I wonder whether CC1=CC(=O)C=C(C)C1=O has logP below 2. Can you tell?
Output: yes (1)

Input: I wonder whether Oc1c(F)cc(Cn2cc[nH]c2=S)cc1F has logP below 2. Can you tell?
Output: yes (1)

Input: I wonder whether COc1ccco1 has logP below 2. Can you tell?
Output: yes (1)

Input: I wonder whether O=C(O)c1ccc(O)cc1 has logP below 2. Can you tell?
Output: yes (1)

Input: I wonder whether CCCN(CC)C(CC)C(=O)Nc1c(C)cccc1C (centres undefined) has logP below 2. Can you tell?
Output: no (0)

Input: I wonder whether CC(C)COC(=O)c1ccccc1C(=O)OCC(C)C has logP below 2. Can you tell?
Output: no (0)

Input: I wonder whether CCN(CC)CCNC(=O)c1cc(F)c(N)cc1OC has logP below 2. Can you tell?
Output: no (0)

Input: I wonder whether FC(F)(F)Sc1ccccc1 has logP below 2. Can you tell?
Output: no (0)
